Measured # of particles (TiO2 NPs detectable), listed per entry.
# Measurement notes: Nanoparticle tracking analysis (NTA) of TiO2 NPs after incubation with MLP ingredients
# Assay type: physicochemical
# Run parameters: 0.1 mg/mL TiO2 NPs + 0.1 mg/mL MLP ingredient, 60 min, diluted 1:100 in water

Consider the worked cases shown below.
molecule="Nc1ccc(N)cc1 [PPD, para-phenylenediamine]" obs_value="1833 ± 93 × 10^6"
molecule="CCOC(=O)c1ccc(O)cc1 [EP, ethyl parabene]" obs_value="764 ± 92 × 10^6"
molecule="O=C1C=C(O)C(=O)c2ccccc21 [HNQ, 2-hydroxy-1,4-naphtoquinone]" obs_value="498 ± 380 × 10^6"
molecule="COC(=O)c1ccc(O)cc1 [MP, methyl parabene]" obs_value="927 ± 146 × 10^6"
molecule="CCCCOC(=O)c1ccc(O)cc1 [BP, butyl parabene]" obs_value="748 ± 137 × 10^6"

What value of # of particles (TiO2 NPs detectable) has been recorded for this entry: CCCOC(=O)c1ccc(O)cc1 [PP, propyl parabene] 612 ± 210 × 10^6

Now the same for CC(C=O)Cc1ccc(C(C)(C)C)cc1 (stereo not shown) [Lilial, 3-(4-tert-butylphenyl)-2-methylpropanal] 552 ± 248 × 10^6
